assay: in vitro; details: 25% human male serum, 37°C, 2 h
Where a SMILES comes first, the peptide text is derived from it.

{"molecule": "N=C(N)NCCC[C@H](NC(=O)[C@H](Cc1c[nH]c2ccccc12)NC(=O)[C@H](Cc1c[nH]c2ccccc12)NC(=O)[C@H](CCCNC(=N)N)NC(=O)[C@@H](N)CCCNC(=N)N)C(=O)N[C@@H](Cc1ccccc1)C(=O)O [Com1, RRWWRF] (H-RRWWRF-OH)", "intact peptide after 2 h": "completely gone"}
{"molecule": "CC(=O)N[C@@H](CCCNC(=N)N)C(=O)N[C@@H](CCCNC(=N)N)C(=O)N[C@@H](Cc1c[nH]c2ccccc12)C(=O)N[C@@H](Cc1c[nH]c2ccccc12)C(=O)N[C@@H](CCCNC(=N)N)C(=O)N[C@@H](Cc1ccccc1)C(=O)O [Com3, CH3CO-RRWWRF] (Ac-RRWWRF-OH)", "intact peptide after 2 h": "almost fully degraded"}
{"molecule": "CC(=O)N[C@@H](CCCNC(=N)N)C(=O)N[C@@H](CCCNC(=N)N)C(=O)N[C@@H](Cc1c[nH]c2ccccc12)C(=O)N[C@@H](CCC(N)=O)C(=O)N[C@@H](Cc1c[nH]c2ccccc12)C(=O)N[C@@H](CCCNC(=N)N)C(=O)O [Lfc3, CH3CO-RRWQWR] (Ac-RRWQWR-OH)", "intact peptide after 2 h": "almost fully degraded"}
{"molecule": "N=C(N)NCCC[C@H](NC(=O)[C@H](Cc1c[nH]c2ccccc12)NC(=O)[C@H](CCC(N)=O)NC(=O)[C@H](Cc1c[nH]c2ccccc12)NC(=O)[C@H](CCCNC(=N)N)NC(=O)[C@@H](N)CCCNC(=N)N)C(=O)O [Lfc1, RRWQWR] (H-RRWQWR-OH)", "intact peptide after 2 h": "completely gone"}

---

test system: Staphylococcus aureus 42D; assay: Bactericidal assay (LD99.9), S. aureus; assay type: cell-based; details: 10 mM phosphate buffer pH 7.0 with 1% TSB, 2 h, 37°C
Where a SMILES comes first, the peptide text is derived from it. Bridges are numbered along the chain shown (N, C = ends).
Below is a list of entries, each paired with its recorded 99.9% Lethal Dose Concentration (LD99.9) S. aureus value.
property: 99.9% Lethal Dose Concentration (LD99.9) S. aureus

{"molecule": "N=C(N)NCCC[C@@H]1NC(=O)[C@H](CCCNC(=N)N)NC(=O)[C@H](Cc2ccccc2)NC(=O)[C@H](CCCNC(=N)N)NC(=O)[C@H](Cc2c[nH]c3ccccc23)NC(=O)[C@H](Cc2c[nH]c3ccccc23)NC1=O [Com5, -RRWWRF-] (cyclo(RRWWRF))", "experimental_value": "7.5 µM"}
{"molecule": "CC(=O)N[C@@H](CCCNC(=N)N)C(=O)N[C@@H](CCCNC(=N)N)C(=O)N[C@@H](Cc1c[nH]c2ccccc12)C(=O)N[C@@H](Cc1c[nH]c2ccccc12)C(=O)N[C@@H](CCCNC(=N)N)C(=O)N[C@@H](Cc1ccccc1)C(N)=O [Com4, CH3CO-RRWWRF-NH2] (Ac-RRWWRF-NH2)", "experimental_value": "7.5 µM"}
{"molecule": "N=C(N)NCCC[C@@H]1NC(=O)[C@H](Cc2c[nH]c3ccccc23)NC(=O)[C@H](Cc2c[nH]c3ccccc23)NC(=O)[C@H](CCCNC(=N)N)NC(=O)[C@H](CCCNC(=N)N)NC(=O)[C@@H](N)CSSC[C@@H](C(N)=O)NC(=O)[C@H](Cc2ccccc2)NC1=O [Com6, CRRWWRFC-NH2] (H-CRRWWRFC-NH2; disulfide 1-8)", "experimental_value": "0.9 µM"}
{"molecule": "N=C(N)NCCC[C@H](NC(=O)[C@H](Cc1c[nH]c2ccccc12)NC(=O)[C@H](Cc1c[nH]c2ccccc12)NC(=O)[C@H](CCCNC(=N)N)NC(=O)[C@@H](N)CCCNC(=N)N)C(=O)N[C@@H](Cc1ccccc1)C(=O)O [Com1, RRWWRF] (H-RRWWRF-OH)", "experimental_value": "7.5 µM"}

---

test: in vitro; settings: male, human, 25% human male serum
Where a SMILES comes first, the peptide text is derived from it. Bridges are numbered along the chain shown (N, C = ends).
# key: entry, value: remaining at 6.5 h, 5 µM
property: remaining at 6.5 h, 5 µM

{"compound": "CC(=O)N[C@H]1CSSC[C@@H](C(N)=O)NC(=O)[C@H](Cc2ccccc2)NC(=O)[C@H](CCCNC(=N)N)NC(=O)[C@H](Cc2c[nH]c3ccccc23)NC(=O)[C@H](Cc2c[nH]c3ccccc23)NC(=O)[C@H](CCCNC(=N)N)NC(=O)[C@H](CCCNC(=N)N)NC1=O [Com7, CH3CO-CRRWWRFC-NH2] (Ac-CRRWWRFC-NH2; disulfide 1-8)", "property": "remaining at 6.5 h, 5 µM", "experimental_value": "~50%"}
{"compound": "N=C(N)NCCC[C@@H]1NC(=O)[C@H](CCCNC(=N)N)NC(=O)[C@H](Cc2c[nH]c3ccccc23)NC(=O)[C@H](CCC(N)=O)NC(=O)[C@H](Cc2c[nH]c3ccccc23)NC(=O)[C@H](CCCNC(=N)N)NC1=O [Lfc5, -RRWQWR-] (cyclo(RRWQWR))", "property": "remaining at 6.5 h, 5 µM", "experimental_value": "> 70%"}
{"compound": "N=C(N)NCCC[C@@H]1NC(=O)[C@H](Cc2c[nH]c3ccccc23)NC(=O)[C@H](Cc2c[nH]c3ccccc23)NC(=O)[C@H](CCCNC(=N)N)NC(=O)[C@H](CCCNC(=N)N)NC(=O)[C@@H](N)CSSC[C@@H](C(N)=O)NC(=O)[C@H](Cc2ccccc2)NC1=O [Com6, CRRWWRFC-NH2] (H-CRRWWRFC-NH2; disulfide 1-8)", "property": "remaining at 6.5 h, 5 µM", "experimental_value": "~50%"}
{"compound": "N=C(N)NCCC[C@@H]1NC(=O)[C@H](CCCNC(=N)N)NC(=O)[C@H](Cc2ccccc2)NC(=O)[C@H](CCCNC(=N)N)NC(=O)[C@H](Cc2c[nH]c3ccccc23)NC(=O)[C@H](Cc2c[nH]c3ccccc23)NC1=O [Com5, -RRWWRF-] (cyclo(RRWWRF))", "property": "remaining at 6.5 h, 5 µM", "experimental_value": "> 70%"}

---

tested on: Escherichia coli ML35; assay: Bactericidal assay (LD99.9), E. coli; type: cell-based; details: 10 mM phosphate buffer pH 7.0 with 1% TSB, 2 h, 37°C
Where a SMILES comes first, the peptide text is derived from it. Bridges are numbered along the chain shown (N, C = ends).
I'd appreciate it if you marked entries label 1 when 99.9% Lethal Dose Concentration (LD99.9) E. coli is lower than 30 µM and label 0 when it is not.

{"compound": "CC(=O)N[C@@H](CCCNC(=N)N)C(=O)N[C@@H](CCCNC(=N)N)C(=O)N[C@@H](Cc1c[nH]c2ccccc12)C(=O)N[C@@H](Cc1c[nH]c2ccccc12)C(=O)N[C@@H](CCCNC(=N)N)C(=O)N[C@@H](Cc1ccccc1)C(=O)O [Com3, CH3CO-RRWWRF] (Ac-RRWWRF-OH)", "assay_target": "Escherichia coli ML35", "classification": "label 0"}
{"compound": "N=C(N)NCCC[C@@H]1NC(=O)[C@H](Cc2c[nH]c3ccccc23)NC(=O)[C@H](Cc2c[nH]c3ccccc23)NC(=O)[C@H](CCCNC(=N)N)NC(=O)[C@H](CCCNC(=N)N)NC(=O)[C@@H](N)CSSC[C@@H](C(N)=O)NC(=O)[C@H](Cc2ccccc2)NC1=O [Com6, CRRWWRFC-NH2] (H-CRRWWRFC-NH2; disulfide 1-8)", "assay_target": "Escherichia coli ML35", "classification": "label 1"}
{"compound": "CC(=O)N[C@@H](CCCNC(=N)N)C(=O)N[C@@H](CCCNC(=N)N)C(=O)N[C@@H](Cc1c[nH]c2ccccc12)C(=O)N[C@@H](Cc1c[nH]c2ccccc12)C(=O)N[C@@H](CCCNC(=N)N)C(=O)N[C@@H](Cc1ccccc1)C(N)=O [Com4, CH3CO-RRWWRF-NH2] (Ac-RRWWRF-NH2)", "assay_target": "Escherichia coli ML35", "classification": "label 1"}
{"compound": "N=C(N)NCCC[C@H](NC(=O)[C@H](Cc1c[nH]c2ccccc12)NC(=O)[C@H](Cc1c[nH]c2ccccc12)NC(=O)[C@H](CCCNC(=N)N)NC(=O)[C@@H](N)CCCNC(=N)N)C(=O)N[C@@H](Cc1ccccc1)C(=O)O [Com1, RRWWRF] (H-RRWWRF-OH)", "assay_target": "Escherichia coli ML35", "classification": "label 0"}
{"compound": "CC(=O)N[C@@H](CCCNC(=N)N)C(=O)N[C@@H](CCCNC(=N)N)C(=O)N[C@@H](Cc1c[nH]c2ccccc12)C(=O)N[C@@H](CCC(N)=O)C(=O)N[C@@H](Cc1c[nH]c2ccccc12)C(=O)N[C@@H](CCCNC(=N)N)C(=O)O [Lfc3, CH3CO-RRWQWR] (Ac-RRWQWR-OH)", "assay_target": "Escherichia coli ML35", "classification": "label 0"}
{"compound": "N=C(N)NCCC[C@H](NC(=O)[C@H](Cc1c[nH]c2ccccc12)NC(=O)[C@H](CCC(N)=O)NC(=O)[C@H](Cc1c[nH]c2ccccc12)NC(=O)[C@H](CCCNC(=N)N)NC(=O)[C@@H](N)CCCNC(=N)N)C(=O)O [Lfc1, RRWQWR] (H-RRWQWR-OH)", "assay_target": "Escherichia coli ML35", "classification": "label 0"}
{"compound": "N=C(N)NCCC[C@@H]1NC(=O)[C@H](CCCNC(=N)N)NC(=O)[C@H](Cc2c[nH]c3ccccc23)NC(=O)[C@H](CCC(N)=O)NC(=O)[C@H](Cc2c[nH]c3ccccc23)NC(=O)[C@H](CCCNC(=N)N)NC1=O [Lfc5, -RRWQWR-] (cyclo(RRWQWR))", "assay_target": "Escherichia coli ML35", "classification": "label 1"}
{"compound": "CC(=O)N[C@@H](CCCNC(=N)N)C(=O)N[C@@H](CCCNC(=N)N)C(=O)N[C@@H](Cc1c[nH]c2ccccc12)C(=O)N[C@@H](CCC(N)=O)C(=O)N[C@@H](Cc1c[nH]c2ccccc12)C(=O)N[C@@H](CCCNC(=N)N)C(N)=O [Lfc4, CH3CO-RRWQWR-NH2] (Ac-RRWQWR-NH2)", "assay_target": "Escherichia coli ML35", "classification": "label 1"}
{"compound": "CSCC[C@@H]1NC(=O)[C@H](CCCNC(=N)N)NC(=O)[C@H](Cc2c[nH]c3ccccc23)NC(=O)[C@H](CCC(N)=O)NC(=O)[C@H](Cc2c[nH]c3ccccc23)NC(=O)[C@H](CCCNC(=N)N)NC(=O)[C@H](CCCNC(=N)N)NC(=O)CNC(=O)[C@H](CC(C)C)NC(=O)[C@H](CCCCN)NC(=O)[C@H](CCCCN)NC1=O [Lfc8, -RRWQWRMKKLG-] (cyclo(RRWQWRMKKLG))", "assay_target": "Escherichia coli ML35", "classification": "label 1"}
